Biological target: bovine intestinal alkaline phosphatase (Bos taurus (Bovine))
Sequence (P19111 20-506): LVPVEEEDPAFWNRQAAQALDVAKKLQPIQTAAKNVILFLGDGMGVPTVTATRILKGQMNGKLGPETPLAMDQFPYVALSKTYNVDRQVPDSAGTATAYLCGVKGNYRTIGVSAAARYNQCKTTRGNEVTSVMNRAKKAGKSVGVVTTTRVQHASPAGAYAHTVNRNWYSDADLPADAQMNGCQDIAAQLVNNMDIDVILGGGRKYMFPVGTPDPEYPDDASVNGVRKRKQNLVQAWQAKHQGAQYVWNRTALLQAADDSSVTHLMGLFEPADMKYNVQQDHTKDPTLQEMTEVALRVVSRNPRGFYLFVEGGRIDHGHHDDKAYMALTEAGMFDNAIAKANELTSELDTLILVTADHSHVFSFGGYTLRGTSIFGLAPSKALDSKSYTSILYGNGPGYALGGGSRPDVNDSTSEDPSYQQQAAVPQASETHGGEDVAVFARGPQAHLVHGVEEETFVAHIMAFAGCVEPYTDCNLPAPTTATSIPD
Test: BiALP: conversion by bovine intestinal alkaline phosphatase
Format: in vitro ADME
Conditions: 2 μM substrate, 100 ng/mL iALP, Tris pH 7.8, 37° C., 60 minutes
Protocol: Fosamprenavir and its parent compound (amprenavir) were purchased from Millipore Sigma (St. Louis, MO). […] Incubations were performed with Tris buffer alone (0.1 M Tris-HCl pH 7.8 containing 1 mM MgCl2 and 1 mM ZnCl2) or the same Tris buffer further containing 100 ng/mL iALP (0.01 units/mL). […] Aliquots (15 μL) of the diluted supernatants were analyzed by mass spectrometry as described below. […]
Measurement Kind: biALP Intermediate A or [Amprenavir] (% of total)

{"Record Smiles": "COC(=O)N[C@H](C(=O)N[C@@H](Cc1ccc(C#Cc2cnc(N3CC4CCC(C3)N4C3COC3)nc2)cc1)[C@H](CN(Cc1c(F)cc(-c2ccn(C(F)F)n2)cc1F)NC(=O)[C@@H](NC(=O)OC)C(C)(C)C(F)(F)F)OC(=O)CC(C)(C)c1c(CC(=O)N[C@@H](CCC(=O)O)C(=O)O)cccc1OP(=O)(O)O)C(C)(C)C(F)(F)F", "Experimental Value": "19 % of total"}
{"Record Smiles": "COC(=O)N[C@H](C(=O)N[C@@H](Cc1ccc(C#Cc2cnc(N3CC4CCC(C3)N4C3COC3)nc2)cc1)[C@H](CN(Cc1c(F)cc(-c2ccn(C(F)F)n2)cc1F)NC(=O)[C@@H](NC(=O)OC)C(C)(C)C(F)(F)F)OC(=O)CC(C)(C)c1c(CC(=O)N[C@@H](CCC(N)=O)C(=O)O)cc(C)cc1OP(=O)(O)O)C(C)(C)C(F)(F)F", "Experimental Value": "6 % of total"}
{"Record Smiles": "COC(=O)N[C@H](C(=O)N[C@@H](Cc1ccc(C#Cc2cnc(N3CC4CCC(C3)N4C3COC3)nc2)cc1)[C@H](CN(Cc1c(F)cc(-c2ccn(C(F)F)n2)cc1F)NC(=O)[C@@H](NC(=O)OC)C(C)(C)C(F)(F)F)OC(=O)CC(C)(C)c1c(CC(=O)N2CCN(S(N)(=O)=O)CC2)cc(C)cc1OP(=O)(O)O)C(C)(C)C(F)(F)F", "Experimental Value": "0 % of total"}
{"Record Smiles": "COC(=O)N[C@H](C(=O)N[C@@H](Cc1ccc(C#Cc2cnc(N3CC4CCC(C3)N4C3COC3)nc2)cc1)[C@H](CN(Cc1c(F)cc(-c2ccn(C(F)F)n2)cc1F)NC(=O)[C@@H](NC(=O)OC)C(C)(C)C(F)(F)F)OC(=O)CC(C)(C)c1c(CC(=O)N[C@@H](CCC(=O)O)C(=O)O)cc(C)cc1OP(=O)(O)O)C(C)(C)C(F)(F)F", "Experimental Value": "9.4 % of total"}
{"Record Smiles": "COC(=O)N[C@H](C(=O)N[C@@H](Cc1ccc(C#Cc2cnc(N3CC4CCC(C3)N4C3COC3)nc2)cc1)[C@H](CN(Cc1c(F)cc(-c2ccn(C(F)F)n2)cc1F)NC(=O)[C@@H](NC(=O)OC)C(C)(C)C(F)(F)F)OC(=O)CC(C)(C)c1c(CC(=O)N(CCCC(=O)O)CC(=O)O)cc(C)cc1OP(=O)(O)O)C(C)(C)C(F)(F)F", "Experimental Value": "8.4 % of total"}

# evaluate next
Any idea what its biALP Intermediate A or [Amprenavir] (% of total) is? The compound is COC(=O)N[C@H](C(=O)N[C@@H](Cc1ccc(C#Cc2cnc(N3CC4CCC(C3)N4C3COC3)nc2)cc1)[C@H](CN(Cc1c(F)cc(-c2ccn(C(F)F)n2)cc1F)NC(=O)[C@@H](NC(=O)OC)C(C)(C)C(F)(F)F)OC(=O)CC(C)(C)c1c(CC(=O)N2CCN(S(C)(=O)=O)CC2)cc(C)cc1OP(=O)(O)O)C(C)(C)C(F)(F)F
0 % of total
